Molecular target: LXRβ (Homo sapiens (Human))
Experiment: In vitro assay LXRβ: PathHunter NHR CHO cells, LXRβ / Steroid Receptor Co-activator Peptide enzyme fragment complementation
Assay type: cell-based
Conditions: PathHunter NHR CHO cells, full-length human LXRβ and SRCP, chemiluminescent signal; read-out: LXRβ PPI
Source text: PathHunter NHR CHO cells stably transfected with tagged full-length human LXRβ and a nuclear fusion protein containing Steroid Receptor Co-activator Peptide (SRCP). […] Microplates were read following signal generation with a PerkinElmer Envision instrument for chemiluminescent signal detection.
Property: EC50

Answer briefly: EC50 recorded on LXRβ (Homo sapiens (Human)) for C[C@H](CCC(=O)N1CCN(c2cc(N)ncn2)CC1)[C@H]1CC[C@H]2[C@@H]3CC=C4C[C@@H](O)CC[C@]4(C)[C@H]3CC[C@]12C [Example 633]
> 10000 nM

// output EC50; input COC(=O)N1CCC2(CCN(C(=O)CC[C@@H](C)[C@H]3CC[C@H]4[C@@H]5CC=C6C[C@@H](O)CC[C@]6(C)[C@H]5CC[C@]34C)C2)C1 (some centres unmarked) [Example 554] ; system LXRβ (Homo sapiens (Human))
> 10000 nM

Print LXRβ (Homo sapiens (Human)) EC50 for CCOc1cccnc1CC[C@@H](C)[C@H]1CC[C@H]2[C@@H]3CC=C4C[C@@H](O)CC[C@]4(C)[C@H]3CC[C@]12C [Example 247] .
250 to 1000 nM

Find the measured EC50 of COc1ncc(OC)c(N2CCN(C(=O)CC[C@@H](C)[C@H]3CC[C@H]4[C@@H]5CC=C6C[C@@H](O)CC[C@]6(C)[C@H]5CC[C@]34C)CC2)n1 [Example 617] with LXRβ (Homo sapiens (Human)) as test system.
> 10000 nM

Report value: EC50, system: LXRβ (Homo sapiens (Human)), molecule: C[C@H](CCc1ncccc1F)[C@H]1CC[C@H]2[C@@H]3CC=C4C[C@@H](O)CC[C@]4(C)[C@H]3CC[C@]12C [Example 164]
250 to 1000 nM

----------
Give measured pIC50 for each item. Keep answers brief.
biological target: SREBP-2 (Homo sapiens (Human), UniProt Q12772); assay: In vitro assay SREBP-2: PathHunter U2OS SREBP-2 Nuclear Translocation Cell Line, U18666A-stimulated; assay type: cell-based; conditions: PathHunter U2OS SREBP-2 nuclear translocation cells, U18666A 10 μM, overnight (16 hours)
pIC50: −log10 of the molar value.

Send back SREBP-2 (Homo sapiens (Human), UniProt Q12772) pIC50 of C[C@H](CCC(=O)N1CCN(C(=O)c2ccncc2)C[C@@H]1C)[C@H]1CC[C@H]2[C@@H]3CC=C4C[C@@H](O)CC[C@]4(C)[C@H]3CC[C@]12C only.
> 6.60

Please indicate recorded pIC50 of C[C@H](CCC(=O)N1CCC(C)(C)CC1)[C@H]1CC[C@H]2[C@@H]3CC=C4C[C@@H](O)CC[C@]4(C)[C@H]3CC[C@]12C measured with SREBP-2 (Homo sapiens (Human), UniProt Q12772).
> 6.60

Quote pIC50 with test system SREBP-2 (Homo sapiens (Human), UniProt Q12772) for COc1cccnc1C1CCN(C(=O)CC[C@@H](C)[C@H]2CC[C@H]3[C@@H]4CC=C5C[C@@H](O)CC[C@]5(C)[C@H]4CC[C@]23C)CC1
> 6.60

----------
target: LXRβ (Homo sapiens (Human), UniProt P55055); assay: In vitro assay LXRβ: PathHunter NHR CHO cells, LXRβ / Steroid Receptor Co-activator Peptide enzyme fragment complementation; type: cell-based; conditions: PathHunter NHR CHO cells, full-length human LXRβ and SRCP, chemiluminescent signal; read-out: LXRβ PPI
Sequence (P55055 whole entry, the tested form may be a part): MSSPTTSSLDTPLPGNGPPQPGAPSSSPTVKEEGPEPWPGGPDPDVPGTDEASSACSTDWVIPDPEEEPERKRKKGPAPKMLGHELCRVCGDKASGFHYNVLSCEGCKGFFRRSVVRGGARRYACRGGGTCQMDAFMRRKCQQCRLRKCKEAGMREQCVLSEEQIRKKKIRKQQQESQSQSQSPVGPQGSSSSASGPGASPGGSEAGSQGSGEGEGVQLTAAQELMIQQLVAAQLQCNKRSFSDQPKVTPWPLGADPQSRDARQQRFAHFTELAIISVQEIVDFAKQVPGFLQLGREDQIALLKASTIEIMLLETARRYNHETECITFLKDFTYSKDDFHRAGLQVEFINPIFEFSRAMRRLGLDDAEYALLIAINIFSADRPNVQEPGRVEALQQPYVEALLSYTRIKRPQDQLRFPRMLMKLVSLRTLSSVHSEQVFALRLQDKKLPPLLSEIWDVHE
Property: EC50

Kindly indicate its recorded EC50. Item: COC(=O)N1CCN(C(=O)[C@@H](C)[C@H]2CC[C@H]3[C@@H]4CC=C5C[C@@H](O)CC[C@]5(C)[C@H]4CC[C@]23C)CC1
> 10000 nM

Return value of EC50 for input COc1ccc(CC[C@@H](C)[C@H]2CC[C@H]3[C@@H]4CC=C5C[C@@H](O)CC[C@]5(C)[C@H]4CC[C@]23C)nc1 , no commentary.
1000 to 10000 nM

Kindly indicate its recorded EC50. Item: C[C@H](CCC(=O)N(C)CCc1nccs1)[C@H]1CC[C@H]2[C@@H]3CC=C4C[C@@H](O)CC[C@]4(C)[C@H]3CC[C@]12C
250 to 1000 nM

----------
molecular target: UniProt:Q12772; assay: In vitro assay SREBP-2: PathHunter U2OS SREBP-2 Nuclear Translocation Cell Line, U18666A-stimulated; assay type: cell-based; conditions: PathHunter U2OS SREBP-2 nuclear translocation cells, U18666A 10 μM, overnight (16 hours)
Property: IC50

Given the compound CC(=O)N[C@H]1CCN(C(=O)CC[C@@H](C)[C@H]2CC[C@H]3[C@@H]4CC=C5C[C@@H](O)CC[C@]5(C)[C@H]4CC[C@]23C)C1 , write its reported IC50.
< 250 nM

Output measured IC50 for this item: CCC(=O)N1CCN(C(=O)CC[C@@H](C)[C@H]2CC[C@H]3[C@@H]4CC=C5C[C@@H](O)CC[C@]5(C)[C@H]4CC[C@]23C)[C@@H](C)C1
< 250 nM

Write down IC50 measured for item C[C@H](CC[C@](O)(C1CC1)C(F)(F)F)[C@H]1CC[C@H]2[C@@H]3CC=C4C[C@@](C)(O)CC[C@]4(C)[C@H]3CC[C@]12C
250 to 1000 nM

----------
molecular target: LXRβ (Homo sapiens (Human), UniProt P55055); test: In vitro assay LXRβ: PathHunter NHR CHO cells, LXRβ / Steroid Receptor Co-activator Peptide enzyme fragment complementation; type: cell-based; settings: PathHunter NHR CHO cells, full-length human LXRβ and SRCP, chemiluminescent signal; read-out: LXRβ PPI
pEC50: −log10 of the molar value.
Consider the following molecules; for each one, report its pEC50.

Enter measured pEC50, system LXRβ (Homo sapiens (Human), UniProt P55055), for the molecule shown: C[C@H](CCC(=O)N1CCC(C)(NS(C)(=O)=O)CC1)[C@H]1CC[C@H]2[C@@H]3CC=C4C[C@@H](O)CC[C@]4(C)[C@H]3CC[C@]12C [Example 84]
< 5.00

Fill: pEC50 (LXRβ (Homo sapiens (Human), UniProt P55055)) for this molecule COC(=O)N1CCSC12CN(C(=O)CC[C@@H](C)[C@H]1CC[C@H]3[C@@H]4CC=C5C[C@@H](O)CC[C@]5(C)[C@H]4CC[C@]13C)C2 [Example 553]
< 5.00

Identify measured pEC50 obtained with LXRβ (Homo sapiens (Human), UniProt P55055) for C[C@H](CCC(=O)N1CCC(N(C)S(C)(=O)=O)CC1)[C@H]1CC[C@H]2[C@@H]3CC=C4C[C@@H](O)CC[C@]4(C)[C@H]3CC[C@]12C [Example 289] .
< 5.00

Report value: pEC50, system: LXRβ (Homo sapiens (Human), UniProt P55055), molecule: C[C@H](CCC(=O)N1CCN(c2cc(N(C)C)ncn2)CC1)[C@H]1CC[C@H]2[C@@H]3CC=C4C[C@@H](O)CC[C@]4(C)[C@H]3CC[C@]12C [Example 663]
< 5.00

Would you please give the reported pEC50 of C[C@H](CCC(=O)N(C)OCCCO)[C@H]1CC[C@H]2[C@@H]3CC=C4C[C@@H](O)CC[C@]4(C)[C@H]3CC[C@]12C [Example 30] with LXRβ (Homo sapiens (Human), UniProt P55055)?
5.00 to 6.00

Give pEC50 for this entry on LXRβ (Homo sapiens (Human), UniProt P55055): C[C@H](CCC(=O)N1CCC(C)(CO)C1)[C@H]1CC[C@H]2[C@@H]3CC=C4C[C@@H](O)CC[C@]4(C)[C@H]3CC[C@]12C (stereo in doubt) [Example 374]
6.00 to 6.60

Give pEC50 for this entry on LXRβ (Homo sapiens (Human), UniProt P55055): C[C@H](CCC(=O)N(C)CCc1ccccn1)[C@H]1CC[C@H]2[C@@H]3CC=C4C[C@@H](O)CC[C@]4(C)[C@H]3CC[C@]12C [Example 293]
6.00 to 6.60

GET pEC50 | system: LXRβ (Homo sapiens (Human), UniProt P55055) | item: C[C@H](CCC(=O)N1CCN(c2ccn(C3CC3)c2)CC1)[C@H]1CC[C@H]2[C@@H]3CC=C4C[C@@H](O)CC[C@]4(C)[C@H]3CC[C@]12C [Example 516]
< 5.00

Look up and report measured pEC50 (LXRβ (Homo sapiens (Human), UniProt P55055)) for the following molecule: Cc1cc(N2CCN(C(=O)CC[C@@H](C)[C@H]3CC[C@H]4[C@@H]5CC=C6C[C@@H](O)CC[C@]6(C)[C@H]5CC[C@]34C)CC2)ncn1 [Example 206]
< 5.00

Enter recorded pEC50 with LXRβ (Homo sapiens (Human), UniProt P55055) for C[C@H](CCc1ccncc1)[C@H]1CC[C@H]2[C@@H]3CC=C4C[C@@H](O)CC[C@]4(C)[C@H]3CC[C@]12C [Example 160] here.
< 5.00
